Sourced from patent US9815851B2

# TEST TARGET: RORγ (UniProt P51449)
# Sequence (P51449 1-518): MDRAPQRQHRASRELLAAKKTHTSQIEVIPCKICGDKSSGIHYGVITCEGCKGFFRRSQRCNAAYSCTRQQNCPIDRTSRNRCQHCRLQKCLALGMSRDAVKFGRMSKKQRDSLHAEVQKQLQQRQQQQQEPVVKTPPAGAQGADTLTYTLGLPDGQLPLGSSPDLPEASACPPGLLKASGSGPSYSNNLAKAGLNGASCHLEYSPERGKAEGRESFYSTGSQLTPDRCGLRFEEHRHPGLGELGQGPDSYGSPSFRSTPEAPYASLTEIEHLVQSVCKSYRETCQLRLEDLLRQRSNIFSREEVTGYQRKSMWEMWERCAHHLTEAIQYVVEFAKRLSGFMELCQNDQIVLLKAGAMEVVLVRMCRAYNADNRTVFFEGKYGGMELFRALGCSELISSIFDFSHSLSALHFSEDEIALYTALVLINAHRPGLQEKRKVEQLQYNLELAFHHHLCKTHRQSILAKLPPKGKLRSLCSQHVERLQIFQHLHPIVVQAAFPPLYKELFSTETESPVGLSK
# PROTOCOL NOTES: RORγ Gal4 Reporter Gene Assay in 293T cells (firefly and renilla luciferase)
# Type: cell-based, human
# RUN CONDITIONS: third value of the cell; Gal4 reporter gene assay in 293T cells, renilla normalised luciferase
MEASURED PROPERTY: pIC50 (REN)
Number only, no unit.

Use the examples below as a reference point.
SMILES NOTATION	READOUT VALUE
CC(C)(C)NS(=O)(=O)c1ccc(-c2cc(C(=O)NCCC(C)(C)C(=O)O)c(Cl)n2CC2CCCCC2)cc1C(F)(F)F	7.6
Cc1c(C(=O)N[C@H]2C[C@H](C(=O)O)C2)cc(-c2ccc(S(=O)(=O)NC3(C#N)CC3)c(C(F)(F)F)c2)n1CC1CCCCC1	5.8
Cc1c(C(=O)NC2CCOCC2)cc(-c2cc(C(=O)NC(C)(C)C)cc3ccccc23)n1CC1CCCCC1	6.9
CNS(=O)(=O)c1ccc(-c2cc(C(=O)NC3CCOCC3)c(C)n2CC2CCCCC2)cc1C(F)(F)F	6.5

Task item: Bench note: what pIC50 (REN) did `Cc1c(C(=O)NCCc2noc(=O)[nH]2)cc(-c2ccc(S(=O)(=O)NC(C)(C)C)c(C(C)(C)C)c2)n1CC1CCCCC1` show?
Reply: 6.5

Task item: Bench note: what pIC50 (REN) did `Cc1c(C(=O)N[C@H]2C[C@H](C(=O)O)C2)cc(-c2cc(OC(F)(F)F)cc(C3(C)CC3)c2)n1CC1CCCCC1` show?
Reply: 7.7

Task item: Bench note: what pIC50 (REN) did `Cc1c(C(=O)NC2COC2)cc(-c2cc(C(C)(C)C)c3c(c2)C(C)(C)CC(=O)N3C)n1CC1CCCCC1` show?
Reply: 7.1

Task item: Bench note: what pIC50 (REN) did `Cc1c(C(=O)N[C@H]2CCOC2)cc(-c2cc(C(C)(C)C)c3c(c2)C2(CCO3)CC2)n1CC1CCCCC1` show?
Reply: 7.1

Task item: Bench note: what pIC50 (REN) did `Cc1c(C(=O)N2CC(N3CCOCC3)C2)cc(-c2cc(C(C)(C)C)cc(C3(C)CC3)c2)n1CC1CCCCC1` show?
Reply: 7.5
